These measurements were taken from ChEMBL document CHEMBL1201862.

# System: HOP-18
# assayRemarks: NCI tumour cell line growth inhibition, 48 h
Active and inactive are the calls of the source. No stated cut-off is given here; in the data, active = GI50 up to about 1.1 µM and inactive = higher.
Classes used: True for active, False for inactive

{"compound": "COC(=O)C1=C(C)C(=O)C2(CCCCCC2C(=O)OC)C1 (stereo not drawn)", "classification": "False"}
{"compound": "O=[N+]([O-])c1ccccc1C1N2CCCCC2[C@@H]2c3[nH]c4ccccc4c3CCN12 (stereo partly drawn)", "classification": "False"}
{"compound": "Cc1cc(Cl)ccc1NC(=O)C(=O)Cc1nc2ccccc2o1", "classification": "False"}
{"compound": "CC(C)OCN1COCN/C1=N/C#N", "classification": "False"}
{"compound": "O=[N+]([O-])C1Cc2ccccc2OC1c1ccccc1 (stereo not drawn)", "classification": "False"}
{"compound": "CN(C)/C=N\\c1nc(=O)n(C2CCC(CO)O2)cc1F (stereo not drawn)", "classification": "False"}
{"compound": "c1ccc(P(=C2c3ccccc3-c3ccccc32)(c2ccccc2)c2ccccc2)cc1", "classification": "False"}
{"compound": "O=C(Nc1nnc(S)[nH]1)C(=O)C(C(=O)c1ccc2ccccc2c1)C1OC(=O)c2ccccc21 (stereo not drawn)", "classification": "True"}
{"compound": "CN(C)CC/C(=N\\Nc1c(Cl)cccc1Cl)c1ccccc1", "classification": "False"}
{"compound": "CCOC(=O)[C@@]12C(C)=CC(=O)O[C@]1(C)C1C(=O)NC(=O)C12 (stereo partly drawn)", "classification": "False"}
{"compound": "CN(C)CCNc1ccc2ncn3c4ccc(O)cc4c(=O)c1c23", "classification": "False"}
{"compound": "COC(=O)CCC(=O)N1Cc2cc(C)ccc2N(C(=O)CCC(=O)OC)Cc2cc(C)ccc21", "classification": "False"}
{"compound": "Cc1ccc(S(=O)(=O)N/N=C/C(C)C)cc1", "classification": "False"}

###

// values below are reported GI50
# Tested on: NCI-H460
# assayRemarks: NCI tumour cell line growth inhibition, 48 h
Calls of active or inactive are those of the source. Rule as the data show it: active = GI50 up to about 1.1 µM and inactive = higher.

{"compound": "Cn1cc2ccccc2c1-c1nc(F)nc(Oc2ccc3c(c2)CC[C@@H]2C3CC[C@@]3(C)C2CC[C@@H]3O)n1 (some centres not stated)", "GI50": "18.6 µM (inactive)"}
{"compound": "NC(=O)C#CC#CC#CCO", "GI50": "5.96 µM (inactive)"}
{"compound": "O[C@H]1[C@H](O)[C@@H](O)[C@H](O)[C@@H](O)[C@H]1O", "GI50": "> 1000 µM (inactive)"}
{"compound": "CCOC(=O)[C@@]12C(C)=CC(=O)O[C@]1(C)C1C(=O)NC(=O)C12 (some centres not stated)", "GI50": "> 100 µM (inactive)"}
{"compound": "CCc1cccc(C(C)C)c1NC(=O)/C(=N\\NC(N)=O)C(C(=O)OC)c1cnc2ccccc2n1 (configuration not stated)", "GI50": "31.6 µM (inactive)"}
{"compound": "COc1cc(Br)cc2cc(-c3cn4c(n3)sc3ccccc34)c(=O)oc12", "GI50": "33.7 µM (inactive)"}
{"compound": "O=S(=O)(c1cc(Cl)ccc1Cl)N1CCN(c2ccc(Cl)c(Cl)c2)CC1", "GI50": "> 10 µM (inactive)"}
{"compound": "CC(=O)NC1C(OCc2ccccc2)OC(CO)C(O)C1OC(C)C(=O)NC(C)C(=O)NC(CCC(=O)NCCCCNc1c2ccccc2nc2cccc([N+](=O)[O-])c12)C(N)=O (configuration not stated)", "GI50": "0.00445 µM (active)"}
{"compound": "CN1CCN(/C(N)=C(\\C#N)C(=O)Nc2ccc(Cl)cc2)CC1", "GI50": "74.6 µM (inactive)"}
{"compound": "CC(=O)OCC1OC(SC2=NC(=O)/C(=C/c3ccccc3)S2)C(OC(C)=O)C(OC(C)=O)C1OC(C)=O (configuration not stated)", "GI50": "42.2 µM (inactive)"}
{"compound": "O=c1oc2ccc3ccccc3c2cc1-c1nc2ccccc2s1", "GI50": "> 100 µM (inactive)"}
{"compound": "Cc1cc2c([nH]c3ccccc32)c(O)c1-c1c(C)cc2c([nH]c3ccccc32)c1O", "GI50": "4.57 µM (inactive)"}
{"compound": "COC(=O)C(C(=O)C(=O)Nc1ccc([N+](=O)[O-])cc1)c1nc2cc(C)c(C)cc2nc1O (configuration not stated)", "GI50": "> 100 µM (inactive)"}
{"compound": "COC(=O)CC(=O)OC1C[C@@H]2CCC3C(C)(C)CCC[C@]3(C)C23CC[C@@]1(C)C3 (some centres not stated)", "GI50": "19.8 µM (inactive)"}
{"compound": "CC(=O)c1c(O)ccc2c1c1c(n2C)C(=O)c2ccccc2C1=O", "GI50": "3.21 µM (inactive)"}
{"compound": "c1csc(-c2cc(-c3cccs3)c(-c3ccsc3)s2)c1", "GI50": "> 100 µM (inactive)"}
{"compound": "COc1cc(C2S/C(=C/c3ccccc3)C(=O)N2c2cc(Cl)c(Cl)cc2Cl)cc(OC)c1OC (configuration not stated)", "GI50": "31.5 µM (inactive)"}
{"compound": "Cc1nc2ccc(Cl)cc2c2c1CCS2", "GI50": "52.2 µM (inactive)"}
{"compound": "Nc1nnnn1NC(=O)NCCCl", "GI50": "> 10 µM (inactive)"}
{"compound": "N=C(N)NCCNC(=N)N", "GI50": "> 100 µM (inactive)"}
{"compound": "FC(F)(F)P1C2C=CC(CC2)C1(F)F (configuration not stated)", "GI50": "> 100 µM (inactive)"}
{"compound": "O=C1C2=C(SCCS2)C(=O)c2c(Sc3ccc(Cl)cc3)c(Sc3ccc(Cl)cc3)c(Sc3ccc(Cl)cc3)c(Sc3ccc(Cl)cc3)c21", "GI50": "> 100 µM (inactive)"}
